- SUBJECT OF TEST: Acetylcholinesterase (Homo sapiens)
- TEST: Acetylcholinesterase (AChE) small molecule antagonists: enzyme-based qHTS assay (AID 1347397); note: nearly all actives have a fitted effect of over 55% in size; note: potency is the fitted concentration of half-maximal effect
- CONDITION LABEL: AChE enzyme activity inhibition; series mostly up to 115 µM
The source made the active and inactive calls. Calls come from the whole dose curve.
VALUE TYPE: Potency

Recorded Potency, per entry:
- STRUCTURE SMILES STRING: "CC/C=C\\CCOC(C)=O"
  RECORDED MEASUREMENT: "inactive"
- STRUCTURE SMILES STRING: "CC(=O)c1ccc[nH]1"
  RECORDED MEASUREMENT: "inactive"
- STRUCTURE SMILES STRING: "CCCCOC(=O)CC"
  RECORDED MEASUREMENT: "inactive"
- STRUCTURE SMILES STRING: "NC(=O)c1ccccc1C(N)=O"
  RECORDED MEASUREMENT: "inactive"
- STRUCTURE SMILES STRING: "CCCCCCCC[P+](CCCCCCCC)(CCCCCCCC)CCCCCCCC"
  RECORDED MEASUREMENT: "22.3 µM (active)"
- STRUCTURE SMILES STRING: "COc1ccc2c(c1)c1c3n2CCN(C)C3=NCC1"
  RECORDED MEASUREMENT: "inactive"

Consider the record given below.
Short answer for `O=C(/C=C/c1ccccc1)OC/C=C/c1ccccc1` : Potency was inactive

---

- SUBJECT OF TEST: Acetylcholinesterase (Homo sapiens) (UniProt P22303)
- Sequence (P22303 whole entry, looked up): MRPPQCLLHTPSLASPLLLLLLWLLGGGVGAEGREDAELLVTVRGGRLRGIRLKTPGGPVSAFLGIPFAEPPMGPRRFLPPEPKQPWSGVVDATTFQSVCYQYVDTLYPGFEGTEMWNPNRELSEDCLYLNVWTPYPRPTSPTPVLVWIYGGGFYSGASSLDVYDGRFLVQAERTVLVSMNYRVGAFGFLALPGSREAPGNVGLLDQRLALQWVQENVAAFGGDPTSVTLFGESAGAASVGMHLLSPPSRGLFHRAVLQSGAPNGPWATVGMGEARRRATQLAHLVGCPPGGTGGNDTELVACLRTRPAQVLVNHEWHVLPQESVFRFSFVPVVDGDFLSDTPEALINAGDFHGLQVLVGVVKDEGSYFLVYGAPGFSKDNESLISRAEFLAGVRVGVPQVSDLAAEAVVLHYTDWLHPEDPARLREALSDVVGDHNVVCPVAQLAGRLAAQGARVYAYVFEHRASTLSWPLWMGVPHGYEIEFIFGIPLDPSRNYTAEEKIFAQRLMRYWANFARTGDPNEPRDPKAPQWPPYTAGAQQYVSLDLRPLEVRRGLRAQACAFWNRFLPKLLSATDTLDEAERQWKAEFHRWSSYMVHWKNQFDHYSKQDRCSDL
- TEST: Acetylcholinesterase (AChE) small molecule antagonists: fluorescence cell-based qHTS assay (AID 1347398); note: nearly all actives have a fitted effect of over 50% in size; note: potency is the fitted concentration of half-maximal effect
- CONDITION LABEL: SH-SY5Y cells; AChE activity; series mostly up to 115 µM
Records with an inconclusive call do not appear. Active and inactive are the calls of the source. The call rests on the fitted dose curve.
VALUE TYPE: Potency

Recorded Potency, per entry:
- STRUCTURE SMILES STRING: "Nc1ccc(NC(=O)c2ccc(N)cc2)cc1"
  RECORDED MEASUREMENT: "inactive"
- STRUCTURE SMILES STRING: "CCOC(=O)COc1cc(-n2ncc(C(F)(F)F)c(C)c2=O)c(F)cc1Cl"
  RECORDED MEASUREMENT: "inactive"
- STRUCTURE SMILES STRING: "Cc1cc(C)c(NC(=O)CN(CC(=O)O)CC(=O)O)c(C)c1Br"
  RECORDED MEASUREMENT: "inactive"
- STRUCTURE SMILES STRING: "CC(=O)CC(=O)Nc1ccc2[nH]c(=O)[nH]c2c1"
  RECORDED MEASUREMENT: "inactive"
- STRUCTURE SMILES STRING: "CC(C)(C)c1nnc(NS(=O)(=O)c2ccc(N)cc2)s1"
  RECORDED MEASUREMENT: "inactive"

Short answer for `CC[N+](CC)(CC)CCOc1ccc(/C=C/c2ccccc2)cc1` : Potency was 34.7 µM (active)

Short answer for `O=C(O)c1cccnc1Nc1cccc(C(F)(F)F)c1` : Potency was inactive

Short answer for `O=C(O)c1ccc(CO)o1` : Potency was inactive

Short answer for `CC/C=C\CCOC(=O)C(C)C` : Potency was inactive

Short answer for `O=C1OC[C@H](Cc2cccc(O)c2)[C@H]1Cc1cccc(O)c1` : Potency was inactive

Short answer for `CC(C)(C)c1cc(CCC(=O)OCCSCCOC(=O)CCc2cc(C(C)(C)C)c(O)c(C(C)(C)C)c2)cc(C(C)(C)C)c1O` : Potency was inactive

Short answer for `CC(C)=CCC/C(C)=C\C#N` : Potency was inactive

---

- SUBJECT OF TEST: Acetylcholinesterase (Homo sapiens)
- TEST: Acetylcholinesterase (AChE) small molecule antagonists: fluorescence cell-based qHTS assay (AID 1347398); note: nearly all actives have a fitted effect of over 50% in size; for activity change, negative = inhibition: % is set by controls: 0 for no effect and ±100 for the full control effect
- CONDITION LABEL: SH-SY5Y cells; series mostly up to 115 µM
Records with an inconclusive call do not appear. The source made the active and inactive calls. The call rests on the fitted dose curve.
VALUE TYPE: activity change, negative = inhibition

Short answer for `O=C(OC[C@H]1O[C@@H](OC(=O)c2cc(O)c(O)c(OC(=O)c3cc(O)c(O)c(O)c3)c2)[C@H](OC(=O)c2cc(O)c(O)c(OC(=O)c3cc(O)c(O)c(O)c3)c2)[C@@H](OC(=O)c2cc(O)c(O)c(OC(=O)c3cc(O)c(O)c(O)c3)c2)[C@@H]1OC(=O)c1cc(O)c(O)c(OC(=O)c2cc(O)c(O)c(O)c2)c1)c1cc(O)c(O)c(OC(=O)c2cc(O)c(O)c(O)c2)c1` : activity change, negative = inhibition was -11.1% [at 23.8 µM] (inactive)

Short answer for `N[C@@H](CSCCCO)C(=O)O` : activity change, negative = inhibition was 1.96% [at 23.8 µM] (inactive)

Short answer for `Cc1cccn2c(=O)c(-c3nnn[nH]3)cnc12` : activity change, negative = inhibition was -17.5% [at 23.8 µM] (inactive)

Short answer for `CCCCCCCCCCCCCCCCCl` : activity change, negative = inhibition was -0.0126% [at 23.8 µM] (inactive)

Short answer for `O=S(O)(O)=S` : activity change, negative = inhibition was 2.89% [at 10.5 µM] (inactive)

Short answer for `O=C(O)c1ccc2c(c1)nc(C(=O)NC1CCN(C3CC3)CC1)n2Cc1cc(-c2ccc(Cl)s2)on1` : activity change, negative = inhibition was -24.8% [at 23.8 µM] (inactive)

Short answer for `Cc1cc(=O)c2c(O)c3c(O)cc(=O)c4c3c3c(cc(O)c1c23)C(C)(C)C=4O` : activity change, negative = inhibition was 7.09% [at 23.8 µM] (inactive)

Short answer for `C=CCCCCCCCCCCC` : activity change, negative = inhibition was 5.55% [at 10.5 µM] (inactive)

Short answer for `O=C1c2ccccc2C(=O)c2cc(Cl)ccc21` : activity change, negative = inhibition was 0% [at 10.5 µM] (inactive)

---

- SUBJECT OF TEST: Acetylcholinesterase (Homo sapiens)
- TEST: Acetylcholinesterase (AChE) small molecule antagonists: colormetric cell-based qHTS assay (AID 1347395); note: % is set by controls: 0 for no effect and ±100 for the full control effect; nearly all actives have a fitted effect of over 30% in size
- CONDITION LABEL: SH-SY5Y cells AChE activity, colorimetric (Ellman); series mostly up to 115 µM
Inconclusive results are not listed. Calls of active or inactive are those of the source. The call rests on the fitted dose curve.
Thanks in advance; please answer with one of these: 1.0 for active, 0.0 for inactive

Here's what some known entries look like.
- COMPOUND: "CC1(C)OC(=O)Nc2ccc(Br)cc21"
  CATEGORY LABEL: 0.0
- COMPOUND: "CC(C)=CCOc1ccc(/C=C/C(=O)c2ccc(OCC=C(C)C)cc2OCC(=O)O)cc1"
  CATEGORY LABEL: 0.0
- COMPOUND: "CC1CCc2nccnc21 (configuration not stated)"
  CATEGORY LABEL: 0.0
- COMPOUND: "N=C(N=C(N)N)N1CCOCC1"
  CATEGORY LABEL: 0.0
- COMPOUND: "COC(=O)CC(C)=O"
  CATEGORY LABEL: 0.0

# lookup: test call for `CC(=O)OCC1=C(C(=O)O)N2C(=O)[C@@H](NC(=O)CSc3ccncc3)[C@H]2SC1` 0.0

# lookup: test call for `CC(C)(COC(=O)c1ccccc1)COC(=O)c1ccccc1` 0.0

# lookup: test call for `Cc1nc(C)nc(N2C[C@@H](C)N(c3ccnc([C@@H](C)O)n3)[C@@H](C)C2)n1` 0.0

---

- SUBJECT OF TEST: Acetylcholinesterase (Homo sapiens) (UniProt P22303)
- TEST: Acetylcholinesterase (AChE) small molecule antagonists: enzyme-based qHTS assay (AID 1347397); note: nearly all actives have a fitted effect of over 55% in size
- CONDITION LABEL: AChE enzyme activity inhibition; series mostly up to 115 µM
Active and inactive are the calls of the source. Calls come from the whole dose curve.
Thanks in advance; please answer with one of these: 1 for active, 0 for inactive

# lookup: test call for `CSc1nc(NC2CC2)nc(NC(C)(C)C)n1` 0

# lookup: test call for CC(CCc1ccc2c(c1)OCO2)NN (stereo not drawn) 0

# lookup: test call for `COC(=O)c1cc(C(=O)OC)cc(S(=O)(=O)O)c1` 0

# lookup: test call for CC(C)C1CCC(C(=O)N[C@H](Cc2ccccc2)C(=O)O)CC1 (stereo partly drawn) 0

# lookup: test call for COC(=O)CC(C(C)=O)C(=O)OC (stereo not drawn) 0

# lookup: test call for `O=C(O)c1cc(C(=O)O)c(C(=O)O)cc1C(=O)O` 0

# lookup: test call for CCOC(=O)C(C)Oc1ccc(Oc2nc3ccc(Cl)cc3o2)cc1 (stereo not drawn) 0

# lookup: test call for `COc1cc(C=C2CCC/C(=C\c3ccc(O)c(OC)c3)C2=O)ccc1O` 0

---

- SUBJECT OF TEST: Acetylcholinesterase (Homo sapiens)
- TEST: Acetylcholinesterase (AChE) small molecule antagonists: enzyme-based qHTS assay (AID 1347397); note: nearly all actives have a fitted effect of over 55% in size; for activity change, negative = inhibition: % is set by controls: 0 for no effect and ±100 for the full control effect
- CONDITION LABEL: series mostly up to 115 µM
- Text: National Center for Advancing Translational Sciences [NCATS] Division of Preclinical Innovation [DPI] U.S. Environmental Protection Agency [EPA] National Institutes of Environmental Health Sciences [NIEHS] National Toxicology Program [NTP] U.S. Food and Drug Administration [FDA] Acetylcholinesterase (AChE) is the primary cholinesterase in the body that hydrolyzes a key neurotransmitter, acetylcholine. Inhibition of AChE activity can lead to neurotoxicity. […]
Activity calls are given as the source filed them. Calls follow the shape of the full dose curve.
VALUE TYPE: activity change, negative = inhibition

- COMPOUND: "COc1cc2nc(N3CCN(C(=O)c4ccco4)CC3)nc(N)c2cc1OC"
  RECORDED MEASUREMENT: "-11.6% [at 23.6 µM] (inactive)"
- COMPOUND: "CCN(CC)CCCC(C)Nc1ccnc2cc(Cl)ccc12 (stereo unspecified)"
  RECORDED MEASUREMENT: "-3.67% [at 10.5 µM] (inactive)"
- COMPOUND: "NCCCNCCSP(=O)(O)O"
  RECORDED MEASUREMENT: "-0.97% [at 10.5 µM] (inactive)"
- COMPOUND: "O=C(CCN1CCN2CCCC2C1)N1c2ccccc2Sc2ccc(Cl)cc21 (stereo unspecified)"
  RECORDED MEASUREMENT: "0.831% [at 23.6 µM] (inactive)"
- COMPOUND: "C=CCCCCCCCCCCC"
  RECORDED MEASUREMENT: "0.273% [at 10.5 µM] (inactive)"

Short answer for COC(=O)C1CC(=O)C(C(=O)OC)CC1=O (stereo unspecified) : activity change, negative = inhibition was 0.472% [at 10.5 µM] (inactive)

Short answer for `NCC[C@H](O)C(=O)N[C@@H]1C[C@H](N)[C@@H](O[C@H]2O[C@H](CN)[C@@H](O)[C@H](O)[C@H]2O)[C@H](O)[C@H]1O[C@H]1O[C@H](CO)[C@@H](O)[C@H](N)[C@H]1O` : activity change, negative = inhibition was 0.773% [at 0.435 µM] (inactive)

Short answer for `CC(C)Cn1cnc2c(N)nc3ccccc3c21` : activity change, negative = inhibition was -0.415% [at 23.6 µM] (inactive)

Short answer for `CCCCCCCCCCCCCCCCCCCl` : activity change, negative = inhibition was -0.128% [at 10.5 µM] (inactive)

Short answer for NC(Cc1ccc(Cl)cc1)C(=O)O (stereo unspecified) : activity change, negative = inhibition was 0.0464% [at 0.435 µM] (inactive)

Short answer for `BrC/C=C/CBr` : activity change, negative = inhibition was 2.59% [at 23.6 µM] (inactive)
